System: rabbit polyclonal antibody KLH-(12)R for mevalonic acid
measurement.notes: Cross-reaction of rabbit polyclonal antibody with analogues of mevalonic acid (radioimmunoassay, competition with R-[2-14C] mevalonic acid)
Type: binding
condition.notes: competition with 400 Bq R-[2-14C] mevalonic acid, overnight at 4° C., polyethylene glycol precipitation
value.type: IC50 (μg/test)
Write it as a number; the unit μg/test goes unstated.

Exam item: Sample CC(CC(=O)O)CC(=O)O [3-Methylglutaric acid] — what was its IC50?
Marked response: 1000

Exam item: Please give the measured IC50 for this compound: CC(O)(CC(=O)O)CC(=O)O [3-Hydroxy-3-methylglutaric acid]
Marked response: 500

Exam item: Bench note: what IC50 did C[C@@](O)(CCO)CC(=O)O [Mevalonic acid] show?
Marked response: 0.065

====

measurement.target: mouse monoclonal antibody MHM-9H (IgG2b, k; hybridoma FERM BP-4524) for mevalonic acid
measurement.notes: Cross-reaction of mouse monoclonal antibody with analogues of mevalonic acid (enzyme immunoassay, solid phase first antibody)
Assay type: binding
condition.notes: antibody MHM-9H coated 7 μg/ml; peroxidase-labeled antigen (18), overnight at 4° C., absorbance 450 nm
value.type: IC50

Exam item: Reported IC50, compound CC(O)(CC(=O)O)CC(=O)O [3-Hydroxy-3-methylglutaric acid] : ____
Marked response: > 250 μg/test

Exam item: Report IC50 for C[C@@](O)(CCO)CC(=O)O [Mevalonic acid] please.
Marked response: 0.0025 μg/test

Exam item: I have this compound here, O=C(O)CCCC(=O)O [Glutaric acid] , and I need its recorded IC50.
Marked response: > 250 μg/test

Exam item: Tell me the measured IC50 of CC(CC(=O)O)CC(=O)O [3-Methylglutaric acid] , please.
Marked response: > 250 μg/test
